Run Parameters: in acetone, 313.15 K
Measurement Label: solubility (mole fraction)
Please reply with the value in numeric form only.

Ask: Give a short answer stating reported solubility (mole fraction) for CC[C@H](C)[C@H](N)C(=O)O .
Reply: 6.14e-05

----------
Run Parameters: in acetonitrile, 323.15 K
Measurement Label: solubility (mole fraction)
Please reply with the value in numeric form only.

Ask: Give a short answer stating reported solubility (mole fraction) for CC[C@H](C)[C@H](N)C(=O)O .
Reply: 0.0007

----------
Run Parameters: in n-propanol, 308.15 K
Measurement Label: solubility (mole fraction)
Please reply with the value in numeric form only.

Ask: Give a short answer stating reported solubility (mole fraction) for CC[C@H](C)[C@H](N)C(=O)O .
Reply: 0.00069
